Origin of values: paper PMC8308784

test system: T. cruzi Tulahuen strain expressing β-galactosidase; assay: T. cruzi primary screening at three fixed concentrations; type: cell-based; conditions: compound at 10 µM; average of at least three independent experiments
For each record, write down the corresponding Primary screening, growth inhibition values at 10 µM.
API doc: respond with a numeric literal and nothing else, no unit.

QUERY: Give the reported Primary screening, growth inhibition values at 10 µM for c1ccc(COc2ncnc3c2ncn3N2CCOCC2)cc1 [Compound 23] (system: T. cruzi Tulahuen strain expressing β-galactosidase).
RESULT: 94.90

QUERY: Next entry: CN1CCN(n2c(-c3ccccc3)nc3c(OCc4cn(Cc5cscn5)nn4)ncnc32)CC1 [Compound 84]
RESULT: 93.94

QUERY: Ok, now c1ccc(COc2ncnc3c2ncn3N2CCCCC2)cc1 [Compound 13H]
RESULT: 93.99

QUERY: Here is the next compound: Cc1nc2c(OCc3ccccc3)ncnc2n1C(C)C [MJ5]
RESULT: 90.91

QUERY: Same read-out for CC(C)(C)n1c(-c2ccccc2)nc2c(OCc3ccccc3)ncnc21 [Compound 6D] ?
RESULT: 84.14

QUERY: Now the compound Cc1nc2c(OCc3ccccc3)ncnc2n1N1CCCCC1 [Compound 13M]
RESULT: 92.01

QUERY: Likewise for Cc1nc2c(OCc3ccccc3)ncnc2n1N(C)C [Compound 4M] ?
RESULT: 89.08

QUERY: Let us now turn to Cc1nc2c(OC(C)C)ncnc2n1C(C)C [MJ17]
RESULT: 93.73

QUERY: Query CC(C)Oc1ncnc2c1ncn2C(C)C [MJ16] next
RESULT: 96.93

QUERY: Try the compound Cc1nc2c(NC(C)(C)C)ncnc2n1C(C)(C)C [Compound 2A]
RESULT: 88.71

* * *

system: T. cruzi Tulahuen strain expressing β-galactosidase; experiment: T. cruzi primary screening at three fixed concentrations; assay type: cell-based; conditions: compound at 1 µM; average of at least three independent experiments
measurement kind: Primary screening, growth inhibition values at 1 µM
API note: the answer field is a bare number with no unit suffix.

QUERY: # query: Primary screening, growth inhibition values at 1 µM | item "c1ccc(COc2ncnc3c2ncn3N2CCOCC2)cc1" | system: T. cruzi Tulahuen strain expressing β-galactosidase
RESULT: 93.82

QUERY: // query: "Cc1nc2c(OCc3ccccc3)ncnc2n1C(C)C"
RESULT: 89.81

QUERY: Another compound: "Cc1nc2c(OCc3ccccc3)ncnc2n1N(C)C"
RESULT: 88.68

QUERY: Please give the result for "CN(C)n1c(-c2ccccc2)nc2c(OCc3ccccc3)ncnc21" too.
RESULT: 94.81

QUERY: Cool, now "CC(C)Oc1ncnc2c1ncn2C(C)C"
RESULT: 100.79

QUERY: What about c1ccc(COc2ncnc3c2ncn3N2CCCCC2)cc1 [Compound 13H] ?
RESULT: 92.39

QUERY: What would you report for "CN1CCN(n2c(-c3ccccc3)nc3c(OCc4cn(Cc5cscn5)nn4)ncnc32)CC1" ?
RESULT: 93.615

QUERY: Would you kindly repeat that for "Cc1nc2c(OC(C)C)ncnc2n1C(C)C" ?
RESULT: 97.87

QUERY: And what about the compound Cc1nc2c(OCc3ccccc3)ncnc2n1N1CCCCC1 [Compound 13M] ?
RESULT: 91.73

QUERY: Okay, and "CCOc1ncnc2c1ncn2C(C)C" ?
RESULT: 94.41

QUERY: Similarly, "Cc1nc2c(NC(C)(C)C)ncnc2n1C(C)(C)C" ?
RESULT: 96.86

QUERY: Also need "CCOc1ncnc2c1ncn2Cc1ccccc1" , thanks.
RESULT: 79.69

* * *

test system: T. cruzi Tulahuen strain expressing β-galactosidase; assay: anti-T. cruzi dose-response growth inhibition assay (Vero cells plus trypomastigotes, CPRG readout); format: cell-based; settings: Vero cells plus trypomastigotes, MOI 1, four days; mean (SD); read-out: T. cruzi IC50 a (anti-T. cruzi assay)
Assignment: determine reported IC50 for the given compounds.
Report only the number, with the unit µM understood.

QUERY: Bench note: what IC50 did COc1cccc(-n2cc(COc3ncnc4c3ncn4C(C)(C)C)nn2)c1 [Compound 88] show?
RESULT: 12.7

QUERY: Field entry: C#CCOc1ncnc2c1ncn2N1CCN(C)CC1 [Compound 93]
RESULT: 1.42

QUERY: Next record, please: c1ccc(CCn2c(-c3ccccc3)nc3c(OCc4ccccc4)ncnc32)cc1 [Compound 6g]
RESULT: 3.97

QUERY: Could you do the same for COc1cccc(-n2cc(COc3ncnc4c3ncn4N3CCN(C)CC3)nn2)c1 [Compound 94] , please?
RESULT: 0.92

QUERY: CN1CCN(n2cnc3c(OCc4ccccc4)ncnc32)CC1 [Compound 29] , same question.
RESULT: 4.86

* * *

system: T. cruzi Tulahuen strain expressing β-galactosidase; test: T. cruzi primary screening at three fixed concentrations; assay type: cell-based; settings: Trypanosoma cruzi, TULAHUEN, read-out: Primary screening, growth inhibition values at 100 µM
Label criterion met when activity at 100 µM is at or above 10%; anything below gets criterion not met.

QUERY: Could you please find out whether "c1ccc(COc2ncnc3c2ncn3Cc2ccccc2)cc1" has activity at 100 µM that meets 10% or exceeds it?
RESULT: criterion not met

QUERY: And for "COc1ccccc1-n1cc(COc2ncnc3c2nc(-c2ccccc2)n3N(C)C)nn1" ?
RESULT: criterion met

QUERY: Also "c1ccc(-c2nc3c(OCc4cn(Cc5cscn5)nn4)ncnc3n2N2CCCCC2)cc1" , if possible.
RESULT: criterion met

QUERY: How about "COC(=O)c1ccccc1-n1cc(COc2ncnc3c2nc(-c2ccccc2)n3N(C)C)nn1" ?
RESULT: criterion met

QUERY: Now consider "CC(C)(C)Nc1ncnc2c1nc(-c1ccccc1)n2C(C)(C)C" and answer again.
RESULT: criterion met

* * *

tested on: T. cruzi Tulahuen strain expressing β-galactosidase; assay: T. cruzi primary screening at three fixed concentrations; type: cell-based; details: compound at 10 µM; average of at least three independent experiments
For each of the compounds below, state its Primary screening, growth inhibition values at 10 µM.

QUERY: Name the reported Primary screening, growth inhibition values at 10 µM value associated with the compound CCOc1ncnc2c1ncn2C(C)C [MJ1]
RESULT: 97.93

QUERY: Try the compound CN(C)n1c(-c2ccccc2)nc2c(OCc3ccccc3)ncnc21 [Compound 4]
RESULT: 89.88

QUERY: Here is the next compound: c1ccc(CCn2c(-c3ccccc3)nc3c(OCc4ccccc4)ncnc32)cc1 [Compound 6g]
RESULT: 87.76

QUERY: Lookup CCOc1ncnc2c1ncn2Cc1ccccc1 [MJ7]
RESULT: 95.54

* * *

system: Vero cells; test: Vero cell toxicity assay (alamarBlue); assay type: cell-based, green monkey; conditions: 4 days; minimum value of the 95% CI, except BNZ (mean (SD))
Please provide measured Vero Cells TC50 for the entries that follow.

QUERY: Fill in the blank: the reported Vero Cells TC50 of CN1CCN(n2cnc3c(OCc4ccccc4)ncnc32)CC1 [Compound 29] is ____.
RESULT: >1000 µM

QUERY: Now this one: C#CCOc1ncnc2c1ncn2N1CCN(C)CC1 [Compound 93]
RESULT: >2000 µM

QUERY: Another molecule to check: c1ccc(-c2nc3c(OCc4cn(Cc5cscn5)nn4)ncnc3n2N2CCCCC2)cc1 [Compound 76]
RESULT: >500 µM

QUERY: And COC(=O)c1ccccc1-n1cc(COc2ncnc3c2nc(-c2ccccc2)n3N(C)C)nn1 [Compound 34] ?
RESULT: >6000 µM

QUERY: // repeat for CC(C)(C)n1c(-c2ccccc2)nc2c(OCc3ccccc3)ncnc21 [Compound 6D] and report
RESULT: >150 µM

QUERY: Likewise for COc1ccccc1-n1cc(COc2ncnc3c2nc(-c2ccccc2)n3N(C)C)nn1 [Compound 33] ?
RESULT: >300 µM

QUERY: Similarly, COc1cccc(-n2cc(COc3ncnc4c3ncn4C(C)(C)C)nn2)c1 [Compound 88] ?
RESULT: >180 µM
